Tested on: pigweed
measurement.protocol: Test B pre/postemergence pigweed
Type: in vivo, Amaranthus retroflexus
experimental.context: Preemergence, Rate 125 g/ha; scale of 0 to 10 where 0 is no effect and 10 is complete control
measurement.type: Redroot pigweed plant response rating
Reply with the value as a number alone.

Use these answered entries as a reference point.
CCC(C)n1c(=O)on(C(=O)N(c2ccc(F)cc2)C(C)C)c1=O (stereo not drawn): 10
CCc1nc(C)c(C(C)n2c(=O)on(C(=O)N(c3ccc(Cl)cc3)C(C)C)c2=O)s1 (stereo not drawn): 0
CCOC(Cn1c(=O)on(C(=O)N(c2ccccc2)C(C)C)c1=O)OCC: 0
CC(C)N(C(=O)n1oc(=O)n(CCCCF)c1=O)c1ccccc1: 5
CCc1nc(C)c(C(C)n2c(=O)on(C(=O)N(c3ccc(F)cc3F)C(C)C)c2=O)s1 (stereo not drawn): 0

# input molecule: CC(C)N(C(=O)n1oc(=O)n(CC(=O)C2CCC2)c1=O)c1ccccc1 ; wanted: its Redroot pigweed plant response rating
0

---

System: corn
measurement.protocol: Test B pre/postemergence corn
Format: in vivo, Zea mays
experimental.context: Preemergence, Rate 125 g/ha
Some molecules, each annotated with its measured Corn plant response rating (0 to 10 scale).

Item: Cc1nsc(Cl)c1Cn1c(=O)on(C(=O)N(c2ccc(F)cc2)C(C)C)c1=O Test system: corn Read-out: Corn plant response rating (0 to 10 scale) Value: ?
0

Lookup CC(C)C(C)n1c(=O)on(C(=O)N(c2ccc(F)cc2)C(C)C)c1=O (centres unmarked)
0

Lookup CC(C)N(C(=O)n1oc(=O)n(C2CC3CCC2C3)c1=O)c1ccc(F)cc1F (centres unmarked)
0

Lookup CC(C)N(C(=O)n1oc(=O)n(C2CCCCCC2)c1=O)c1ccc(Cl)cc1
0

Lookup CC(C)C(C)n1c(=O)on(C(=O)N(c2ccc(F)cc2F)C(C)C)c1=O (centres unmarked)
0

---

Test system: velvetleaf
measurement.protocol: Test B pre/postemergence velvetleaf
Assay type: in vivo, Abutilon theophrasti
experimental.context: Postemergence, Rate 125 g/ha; scale of 0 to 10 where 0 is no effect and 10 is complete control
measurement.type: Plant response rating, Velvetleaf
Reply with the value as a number alone.

# input molecule: CC(C)N(C(=O)n1oc(=O)n(CC2=NOCCC2)c1=O)c1ccc(F)cc1 ; wanted: its Plant response rating, Velvetleaf
0

Lookup CC(=O)OCC(CCl)n1c(=O)on(C(=O)N(c2ccc(F)cc2)C(C)C)c1=O (stereo not drawn)
0

Lookup CCc1nc(C)c(C(C)n2c(=O)on(C(=O)N(c3ccc(F)cc3F)C(C)C)c2=O)s1 (stereo not drawn)
2

Lookup CCOC(Cn1c(=O)on(C(=O)N(c2ccccc2)C(C)C)c1=O)OCC
0

Lookup CCc1nc(C)c(C(C)n2c(=O)on(C(=O)N(c3ccc(Cl)cc3)C(C)C)c2=O)s1 (stereo not drawn)
0

Lookup CC(C)N(C(=O)n1oc(=O)n(CC(=O)C2CCC2)c1=O)c1ccccc1
0

---

Tested on: pigweed
measurement.protocol: Test B pre/postemergence pigweed
Format: in vivo, Amaranthus retroflexus
experimental.context: Preemergence, Rate 250 g/ha; scale of 0 to 10 where 0 is no effect and 10 is complete control
measurement.type: Plant response rating, Redroot pigweed
Reply with the value as a number alone.

Use these answered entries as a reference point.
Cc1ccccc1Cn1c(=O)on(C(=O)N(c2ccc(F)cc2)C(C)C)c1=O: 10
CC(C)N(C(=O)n1oc(=O)n(-c2ccc(OC(F)(F)F)cc2)c1=O)C1=CCOCC1: 0

Then this compound:
# input compound: CCN(C(=O)n1oc(=O)n(-c2ccc(C)cc2C)c1=O)C1CCCCC1 ; wanted: its Plant response rating, Redroot pigweed
0

---

System: blackgrass
measurement.protocol: Test B pre/postemergence blackgrass
Format: in vivo, Alopecurus myosuroides
experimental.context: Postemergence, Rate 62 g/ha; scale of 0 to 10, 0 is no effect, 10 is complete control
measurement.type: Blackgrass plant response rating
Reply with the value as a number alone.

Use these answered entries as a reference point.
CC(C)N(C(=O)n1oc(=O)n(CC2CC2)c1=O)c1ccccc1: 8
C=CCCCn1c(=O)on(C(=O)N(c2ccc(F)cc2F)C(C)C)c1=O: 0

Then this compound:
Item: CCOC(=O)C=C(Cn1c(=O)on(C(=O)N(c2ccc(F)cc2F)C(C)C)c1=O)OCC Test system: blackgrass Read-out: Blackgrass plant response rating Value: ?
0

---

Tested on: pigweed
measurement.protocol: Test B pre/postemergence pigweed
Format: in vivo, Amaranthus retroflexus
experimental.context: Postemergence, Rate 62 g/ha; scale 0 to 10, 0 is no effect, 10 is complete control
measurement.type: Redroot pigweed plant response rating
Reply with the value as a number alone.

Cc1ccccc1-n1c(=O)on(C(=O)N(c2ccc(F)cc2)C(C)C)c1=O: 0
CCN(C(=O)n1oc(=O)n(-c2ccc(C)cc2C)c1=O)C1CCCCC1: 0
Cc1ccccc1Cn1c(=O)on(C(=O)N(c2ccc(F)cc2)C(C)C)c1=O: 3
CCc1ccccc1-n1c(=O)on(C(=O)N(c2ccc(F)cc2F)C(C)C)c1=O: 0
C=CCn1c(=O)on(C(=O)N(c2ccccc2)C(C)C)c1=O: 2

Then this compound:
# input compound: Cc1ccccc1-n1c(=O)on(C(=O)N(C2=CCOCC2)C(C)C)c1=O ; wanted: its Redroot pigweed plant response rating
0

---

Some compounds, each annotated with its measured Crabgrass plant response rating.
System: crabgrass
measurement.protocol: Test B pre/postemergence crabgrass
Format: in vivo, Digitaria sanguinalis
experimental.context: Preemergence, Rate 500 g/ha; scale of 0 to 10 where 0 is no effect and 10 is complete control
Protocol: […] At the same time, these crop and weed species were also treated with postemergence applications of test chemicals formulated in the same manner. […] Treated plants and controls were maintained in a greenhouse for twelve to sixteen days, after which all species were compared to controls and visually evaluated. […]
Reply with the value as a number alone.

CC(C)N(C(=O)n1oc(=O)n(C2CCC2)c1=O)c1ccccc1: 10
CCc1nc(C)c(Cn2c(=O)on(C(=O)N(c3ccc(Cl)cc3)C(C)C)c2=O)s1: 8
CC(C)N(C(=O)n1oc(=O)n(C2CCCCO2)c1=O)c1ccc(F)cc1 (centres unmarked): 0
Cc1c(-n2c(=O)on(C(=O)N(c3ccc(F)cc3)C(C)C)c2=O)ccc2ccccc12: 0
CC(C)N(C(=O)n1oc(=O)n(CCCN(C)C)c1=O)c1ccc(F)cc1: 2
CC(C)C(C)n1c(=O)on(C(=O)N(c2ccc(F)cc2F)C(C)C)c1=O (centres unmarked): 10

# input compound: CC(C)N(C(=O)n1oc(=O)n(CCCCF)c1=O)c1ccccc1 ; wanted: its Crabgrass plant response rating
9

Lookup COCn1c(=O)on(C(=O)N(c2ccc(Cl)cc2)C(C)C)c1=O
10

---

Some molecules, each annotated with its measured Blackgrass plant response rating.
Tested on: blackgrass
measurement.protocol: Test B pre/postemergence blackgrass
Type: in vivo, Alopecurus myosuroides
experimental.context: Rate 62 g/ha, Postemergence; scale 0 to 10 (0 no effect, 10 complete control)

Use these answered entries as a reference point.
Cc1c(-n2c(=O)on(C(=O)N(c3ccc(F)cc3)C(C)C)c2=O)ccc2ccccc12: 0
CCOC(=O)CC(C(=O)OCC)n1c(=O)on(C(=O)N(c2ccc(F)cc2F)C(C)C)c1=O (stereo not drawn): 0
CCN(CC)C(=O)n1oc(=O)n(C2CC2)c1=O: 0

Item: CC(C)N(C(=O)n1oc(=O)n(CCC[Si](C)(C)C)c1=O)c1ccc(F)cc1 Test system: blackgrass Read-out: Blackgrass plant response rating Value: ?
0

Lookup CC(C)N(C(=O)n1oc(=O)n(C2CCCC2)c1=O)c1ccc(F)cc1F
3

Lookup CC(C)N(C(=O)n1oc(=O)n(C2CC3CCC2C3)c1=O)c1ccc(F)cc1F (stereo not drawn)
0

---

Test system: cocklebur
measurement.protocol: Test B pre/postemergence cocklebur
Assay type: in vivo, Xanthium strumarium
experimental.context: Rate 125 g/ha, Postemergence; scale 0 to 10
measurement.type: Cocklebur plant response rating

Use these answered entries as a reference point.
CCCCn1c(=O)on(C(=O)N(c2ccc(F)cc2)C(C)C)c1=O [Compound 221]: 0
COc1nc(OC)nc(N(C(=O)n2oc(=O)n(C(C)C)c2=O)C(C)C)n1 [Compound 182]: 0
CC(C)N(C(=O)n1oc(=O)n(Cc2ccco2)c1=O)c1ccc(F)cc1 [Compound 207]: 0

Then this compound:
# input compound: Cc1nc(C)c(Cn2c(=O)on(C(=O)N(c3ccc(Cl)cc3)C(C)C)c2=O)s1 [Compound 191] ; wanted: its Cocklebur plant response rating
2

---

Test system: blackgrass
measurement.protocol: Test B pre/postemergence blackgrass
Type: in vivo, Alopecurus myosuroides
experimental.context: Preemergence, Rate 500 g/ha; scale 0 to 10, 0 is no effect, 10 is complete control
Label Condition met when Blackgrass plant response rating is strictly below 9; otherwise label Condition not met.

# count of solved cases: 5
CC(C)N(C(=O)n1oc(=O)n(C(C)C2CC2)c1=O)c1ccc(F)cc1 (stereo not drawn): Condition not met
COCC(OC)n1c(=O)on(C(=O)N(c2ccc(F)cc2)C(C)C)c1=O (stereo not drawn): Condition not met
CC(C)N(C(=O)n1oc(=O)n(C2CCCCCC2)c1=O)C1=CCCCC1: Condition met
Cc1nc(Cl)sc1C(C)n1c(=O)on(C(=O)N(c2ccc(Cl)cc2)C(C)C)c1=O (stereo not drawn): Condition met
CC(C)N(C(=O)n1oc(=O)n(CNC(=O)c2ccccc2)c1=O)c1ccc(F)cc1: Condition met

Please examine the following record next.
Would you kindly verify if Blackgrass plant response rating of CC(C)N(C(=O)n1oc(=O)n(CCC[Si](C)(C)C)c1=O)c1ccc(F)cc1 is strictly less than 9?
Condition met
